target: corticotropin releasing factor 1 receptor; assay: cell-based or functional assay
Ends that are not written are not given here.

Binder: ZGPPISIDLPQILLRKMIEIEKQEKEKQQAANNRLLLDTI (C-terminal amide) [SEQ ID NO 199]
Op: =
CRF1R EC50 (nM): 706

Binder: DNPSLSIDLPFHLLRTLLELARTQSQRERAEQNAIIFASV-NH2 [SEQ ID NO 185]
Op: =
CRF1R EC50 (nM): 358

Binder: IVLSLDVPIGLLQILLEQTRARAAREQATTNARILARV-NH2 [SEQ ID NO 128]
Op: >
CRF1R EC50 (nM): 100

Binder: IVLSLDVPIGLLQILLEQTRADAAREQATTNARILARV-NH2 [SEQ ID NO 126]
Op: >
CRF1R EC50 (nM): 100

Binder: ZGPPISIDLPTWLLRKMIEIEKQEKEKQQAANNRLLLDTI (C-terminal amide) [SEQ ID NO 41]
Op: >
CRF1R EC50 (nM): 1000

Binder: DNPSLSIDLPFYLLRTLLELARTQSQRERAEQNAIIFASV-NH2 [SEQ ID NO 183]
Op: =
CRF1R EC50 (nM): 415

Binder: ZGPPISIDLPIILLRKMIEIEKQEKEKQQAANNRLLLDTI (C-terminal amide) [SEQ ID NO 36]
Op: >
CRF1R EC50 (nM): 1000

Binder: DNPSLSIDLPLYLLRTLLELARTQSQRERAEQNAIIFASV-NH2 [SEQ ID NO 177]
Op: =
CRF1R EC50 (nM): 613

Binder: SQEPPISLDLPIHLLREVLEMTKADQLAQQAHSNRKLLDIA-NH2 [SEQ ID NO 94]
Op: =
CRF1R EC50 (nM): 100

Binder: IVLSLDVPIGLLQILLEQEKQEKEKQQATTNARILARV-NH2 [SEQ ID NO 167]
Op: =
CRF1R EC50 (nM): 1000

Binder: ZGPPISIDLSLELLRKMIEIEKQEKEKQQAANNALLLATI (C-terminal amide) [SEQ ID NO 30]
Op: =
CRF1R EC50 (nM): 100

Binder: ZGPPISIDLPLFLLRKMIEIEKQEKEKQQAANNRLLLDTI (C-terminal amide) [SEQ ID NO 195]
Op: =
CRF1R EC50 (nM): 103

Binder: ZGPPISIDLPDYLLRKMIEIEKQEKEKQQAANNRLLLDTI (C-terminal amide) [SEQ ID NO 54]
Op: =
CRF1R EC50 (nM): 1000

Binder: SEEPPISLDVPIGLLQEVLEMARAEQLAQQAHSNRKLMEII-NH2 [SEQ ID NO 162]
Op: >
CRF1R EC50 (nM): 100

Binder: IVLSLDVPIGLLQILLEQAKAEAAREQATTNARILARV-NH2 [SEQ ID NO 112]
Op: >
CRF1R EC50 (nM): 100

Binder: SQEPPISLDLPFHLLREVLEMTKADQLAQQAHSNRKLLDIA-NH2 [SEQ ID NO 104]
Op: =
CRF1R EC50 (nM): 100

Binder: ZGPPISIDLPLILLRKMIEIEKQEKEKQQAANNRLLLDTI (C-terminal amide) [SEQ ID NO 194]
Op: =
CRF1R EC50 (nM): 106

Binder: ZGPPISIDLPGYLLRKMIEIEKQEKEKQQAANNRLLLDTI (C-terminal amide) [SEQ ID NO 63]
Op: =
CRF1R EC50 (nM): 73.2

Binder: ZGPPISIDLPTRLLRKMIEIEKQEKEKQQAANNRLLLDTI (C-terminal amide) [SEQ ID NO 60]
Op: >
CRF1R EC50 (nM): 100

Binder: SQEPPISLDLPFELLREVLEMTKADQLAQQAHSNRKLLDIA-NH2 [SEQ ID NO 97]
Op: =
CRF1R EC50 (nM): 100

Binder: SQEPPISLDLPFYLLREVLEMTKADQLAQQAHSNRKLLDIA-NH2 [SEQ ID NO 96]
Op: =
CRF1R EC50 (nM): 100

Binder: ZGPPISIDLPTQLLRKMIEIEKQEKEKQQAANNRLLLDTI (C-terminal amide) [SEQ ID NO 72]
Op: >
CRF1R EC50 (nM): 100

Binder: SQEPPISLDLPTQLLREVLEMTKADQLAQQAHSNRKLLDIA-NH2 [SEQ ID NO 105]
Op: =
CRF1R EC50 (nM): 100

Hello, the source for this data is patent US20030148958A1, in case you need it.
